Source of measurements: PubChem BioAssay AID540252

target: glucose-6-phosphate dehydrogenase-6-phosphogluconolactonase (Plasmodium falciparum 3D7); experiment: inhibition of P. falciparum G6PD activity – biochemical, end-point NADPH detection, orthogonal assay, dose response (AID 540252); details: purified PfG6PD enzyme, NADPH direct detection
Calls of active or inactive are those of the source. The rule behind the calls is not given here.
Classes used: active, inactive

1) Cc1cc(C)nc(SSc2nc(C)cc(C)n2)n1: active
2) CCOC(=O)CSc1nnc(NC(=O)c2cccc([N+](=O)[O-])c2)s1: inactive
3) CN1CCc2cccc3c2[C@@H]1Cc1ccc(O)c(O)c1-3: inactive
4) Cc1c(Cl)c([N+](=O)[O-])nn1Cc1ccc(C(=O)N/N=C\c2cccc(Br)c2)o1: inactive
5) COc1ccc(C2(CNC(=O)c3ccc(OC)c([N+](=O)[O-])c3)CCCCC2)cc1OC: inactive
6) Oc1cc(CNCc2ccccc2)c(O)cc1CNCc1ccccc1: inactive
7) O=C(CN1C(=O)C2C3C=CC(C3)C2C1=O)OCC(=O)c1ccc([N+](=O)[O-])cc1 (stereo unspecified): active
8) Cc1cc(O)c(C(C)C)cc1N=Cc1ccccc1[N+](=O)[O-]: inactive
9) CCN1CCCC1CNC(=O)c1ccc2c(c1)NC(=O)/C(=C\c1ccccc1Cl)S2 (stereo unspecified): inactive
10) CC(C)(C)NC(=O)COc1ccc(CNc2ccc3[nH]c(=O)[nH]c3c2)cc1: inactive
11) Cc1cc(C)c2c(=O)n(CC(=O)Nc3ccc(Br)c(C)c3)sc2n1: inactive
12) C/C(Cn1nnc([N+](=O)[O-])n1)=N\NC(=O)c1ccccc1O: inactive
13) COc1c2ccoc2c(OCC=C(C)C)c2oc(=O)ccc12: inactive
14) COc1ccc(CCn2c(NN)nc3c2c(=O)[nH]c(=O)n3C)cc1: inactive
15) COC1=C(N)C(=O)c2nc(C)ccc2C1=O: inactive
16) Cc1ccc(NC(=O)c2ccc(Cl)c(N3C(=O)C=CC3=O)c2)cc1: active
17) COc1cc(C(=O)O/N=C2\C=CC(=O)C=C2C)cc(OC)c1OC: inactive
18) O=C(Nc1ccc(N2CCN(C(=O)c3ccco3)CC2)c(Cl)c1)c1cc2ccccc2o1: inactive
19) Cc1cc(C)c[n+](C2=C([O-])c3ccccc3C(=O)/C2=N\S(=O)(=O)c2cccs2)c1: inactive
20) COc1cc(CN2CCCC(C(=O)c3ccc4c5c(cccc35)CC4)C2)cc(OC)c1O (stereo unspecified): inactive
21) Cc1ccc(S(=O)(=O)/N=C2/C=C(C3C(=O)CC(C)(C)CC3=O)C(=O)c3ccccc32)cc1: inactive

----------
molecular target: glucose-6-phosphate dehydrogenase-6-phosphogluconolactonase (Plasmodium falciparum 3D7); test: inhibition of P. falciparum G6PD activity – biochemical, end-point NADPH detection, orthogonal assay, dose response (AID 540252); conditions: purified PfG6PD enzyme, NADPH direct detection
Active and inactive are the calls of the source. The rule behind the calls is not given here.
Classes used: Y for active, N for inactive

1. Cc1cc(C)nc(/N=C(\N)Nc2ccccc2-c2ccccc2)n1: N
2. CN(C)c1ccc(/C=C/c2ccc3c4ccccc4ccc3[n+]2-c2ccccc2)cc1: N
3. Cc1ccc(/C=C/C(=O)NCC2COc3ccccc3O2)o1 (stereo unspecified): N
4. CCN(CC)C(=O)c1c(C)[nH]c(=S)c(C#N)c1-c1ccco1: N
5. Cc1cc(C)c2c(=O)n(CC(=O)N3CCC(N4CCCCC4)CC3)sc2n1: N
6. O=C(Nc1ccccn1)c1sc2cc([N+](=O)[O-])ccc2c1Cl: N
7. Clc1nssc1=Nc1nncs1: Y
8. CCC(=O)OCOc1ccc(/C=C2/CCC(CN(C)C)C2=O)cc1 (stereo unspecified): N
9. CC(C)c1nnc(NC(=O)c2sc3ccccc3c2Cl)s1: N
10. Cc1cccc(C2(c3cccc(C)c3)CC2C(=O)Nc2ccc([N+](=O)[O-])cc2O)c1 (stereo unspecified): N
11. Cc1ccc(C(=O)NCC(=O)NCC(=O)OCC(=O)c2ccc([N+](=O)[O-])cc2)cc1: Y

----------
molecular target: glucose-6-phosphate dehydrogenase-6-phosphogluconolactonase (Plasmodium falciparum 3D7); assay: inhibition of P. falciparum G6PD activity – biochemical, end-point NADPH detection, orthogonal assay, dose response (AID 540252); conditions: purified PfG6PD enzyme, NADPH direct detection
The source made the active and inactive calls. No rule for the calls is given here.
IC50 reference
Result type: IC50

1) O=C1Nc2ccccc2C(=O)C1(Cl)Cc1ccccc1 (stereo unspecified): > 80 µM (inactive)
2) O=c1c2ccccc2sn1-c1ccccc1: 7.9 µM
3) CN1CCc2cc(O)cc3c2[C@H]1Cc1ccc(O)c(O)c1-3: > 80 µM (inactive)
4) COc1cc(/C=C2\CC/C(=C\c3cc(OC)c(O)c(OC)c3)C2=O)cc(OC)c1O: > 80 µM (inactive)
5) Cc1ccc(S(=O)(=O)NNc2ccccc2)cc1: 37.9 µM
6) CC1CCc2c(nc3sc4c(c3c2N)CCCC4)C1 (stereo unspecified): > 80 µM (inactive)

----------
target: glucose-6-phosphate dehydrogenase-6-phosphogluconolactonase (Plasmodium falciparum 3D7); test: inhibition of P. falciparum G6PD activity – biochemical, end-point NADPH detection, orthogonal assay, dose response (AID 540252); conditions: purified PfG6PD enzyme, NADPH direct detection
The source made the active and inactive calls. No rule for the calls is given here.
Classes used: Yes for active, No for inactive

1) O=S(=O)(Nc1ccccc1F)c1cccc(NC(=S)NCCN2CCOCC2)c1: Yes
2) Cc1cccc(C(=O)Nc2nnc(S(=O)(=O)N3CCOCC3)s2)c1: No
3) O=c1c2ccccc2sn1-c1ccc(Cl)cc1Cl: Yes
4) CN(C)c1ccc(C=c2c3ccccc3n3c2c2ccccc2[n+]3C)cc1: No
5) Cc1ccc(S(=O)c2ccc([N+](=O)[O-])c3nonc23)cc1 (stereo not drawn): Yes
6) Clc1cccc(Cl)c1CNc1ccc(N2CCCC2)cc1: No
7) COC1=CC(=O)C=C(OC)C1(O)CC(C)=O: No
8) Cc1ccc(NC2=C(NC(=O)c3ccccc3)C(=O)c3ccccc3C2=O)cc1Cl: No
9) O=C1C=CC(=O)N1CCCCCCCCCCN1C(=O)C=CC1=O: No
10) CC1N(C)c2cccc3cccc(c23)N1C: No
11) O=C(O)c1cc(N2C(=O)C=CC2=O)cc(N2C(=O)C=CC2=O)c1: Yes
12) O=C(O)CSc1cc(NS(=O)(=O)c2cccc([N+](=O)[O-])c2)c2ccccc2c1O: No
13) CN=c1nc(-c2ccccc2)n(-c2ccccc2)s1: Yes
14) Cc1ccc(-c2c(C(=O)N/N=C/c3ccsc3)nnn2-c2nonc2N)cc1: No
15) COc1c(O)c(O)c2oc(-c3ccccc3)cc(=O)c2c1OC: No
16) COC(=O)CCC(=O)OC1(C)C(=O)C2=CN(c3ccc(OC)cc3)C(c3ccc(OC)cc3)=CC2=C(Br)C1=O (stereo not drawn): No
17) O=C1C=CC(=O)N1c1ccc(N2CCCCC2)cc1: Yes
18) O=c1c2ccccc2sn1-c1cc(S(=O)(=O)N2CCOCC2)ccc1N1CCCC1: Yes
19) O=C(CCc1ccc(S(=O)(=O)N2CCOCC2)cc1)N/N=C/c1ccc(O)c(O)c1O: No
20) S=C(NN=Cc1ccccn1)N(Cc1ccccn1)Cc1ccccn1: No
21) C=CCOc1c(Cl)cc(CNc2ccc3[nH]c(=O)[nH]c3c2)cc1OC: No
22) Cc1ccc(/C=C/C(=O)NCCc2cccc(Cl)c2)o1: No
23) O=C(Sc1n[nH]c(=O)[nH]c1=O)c1ccccc1: Yes

----------
target: glucose-6-phosphate dehydrogenase-6-phosphogluconolactonase (Plasmodium falciparum 3D7); assay: inhibition of P. falciparum G6PD activity – biochemical, end-point NADPH detection, orthogonal assay, dose response (AID 540252); details: purified PfG6PD enzyme, NADPH direct detection
Activity calls are given as the source filed them. How the calls were made is not given here.
Classes used: active, inactive

1. Cc1cc(C)nc(NC(N)=NCCc2ccccc2)n1: inactive
2. CN1CCc2cccc3c2[C@H]1Cc1ccc(O)c(O)c1-3: inactive
3. O=C(Cc1ccccc1)NCC(=O)OCC(=O)c1ccc([N+](=O)[O-])cc1: active
4. COc1cccc(CNc2ccc3[nH]c(=O)[nH]c3c2)c1OCc1ccccc1Cl: inactive
5. O=c1c2ccccc2sn1-c1ccc(S(=O)(=O)N2CCCCC2)cc1: inactive
6. CCCCC1C(=O)N(c2ccccc2)N(c2ccc(O)cc2)C1=O (stereo unspecified): inactive
7. COc1ccc(/C=C/c2nc3ccccc3n2Cc2ccc(OC)c(OC)c2)cc1: inactive
8. CCOC(=O)Cc1cc(=O)n2[nH]c(C(C)(C)C)cc2n1: inactive
9. COc1ccc(C(=O)Nc2cc(Cl)ccc2C(=O)O)cc1: inactive
10. COc1ccc(NC2CCCN(Cc3cccc4cnccc34)C2)cc1OC (stereo unspecified): inactive
11. Cc1ccc(/C=C/C(=O)N2CCN(S(=O)(=O)c3ccc(C)c(C)c3)CC2)o1: inactive
